Documented inhibition of growth at 10 µM across a set of compounds
test system: LOX IMVI; test: Antitumor activity against human LOX IMVI cells assessed as cell growth inhibition at 10 uM incubated for 48 hrs by sulforhodamine B assay; type: functional; conditions: read-out: GI

[
  {
    "Sample smiles": "CCN(CC)c1ccc(-c2nc3c4ccccc4c4ccccc4c3[nH]2)c(O)c1",
    "Value prefix": "=",
    "inhibition of growth at 10 µM [%]": 11.7
  },
  {
    "Sample smiles": "Oc1ccccc1-c1nc2c3ccccc3c3ccccc3c2[nH]1",
    "Value prefix": "<",
    "inhibition of growth at 10 µM [%]": 10
  },
  {
    "Sample smiles": "O=C1NC(=O)/C(=C/c2ccc(-c3nc4c5ccccc5c5ccccc5c4[nH]3)cc2)S1",
    "Value prefix": "=",
    "inhibition of growth at 10 µM [%]": 36.7
  },
  {
    "Sample smiles": "CCN(CC)c1ccc(-c2nc3c4ccccc4c4ccccc4c3o2)c(O)c1",
    "Value prefix": "=",
    "inhibition of growth at 10 µM [%]": 75.3
  }
]

---

test system: OVCAR-8; test: Antitumor activity against human OVCAR-8 cells assessed as cell growth inhibition at 10 uM incubated for 48 hrs by sulforhodamine B assay; type: functional; settings: read-out: GI
Measured attribute: inhibition of growth at 10 µM (%)

[
  {
    "Sample smiles": "CCN(CC)c1ccc(-c2nc3c4ccccc4c4ccccc4c3[nH]2)c(O)c1",
    "Tested on": "OVCAR-8",
    "Value prefix": "<",
    "Observed result": 10
  },
  {
    "Sample smiles": "O=C1NC(=O)/C(=C/c2ccc(-c3nc4c5ccccc5c5ccccc5c4[nH]3)cc2)S1",
    "Tested on": "OVCAR-8",
    "Value prefix": "=",
    "Observed result": 21.7
  },
  {
    "Sample smiles": "Oc1ccccc1-c1nc2c3ccccc3c3ccccc3c2o1",
    "Tested on": "OVCAR-8",
    "Value prefix": "=",
    "Observed result": 11
  }
]

---

tested on: LOX IMVI; assay: Antitumor activity against human LOX IMVI cells assessed as cell growth inhibition at 10 uM incubated for 48 hrs by sulforhodamine B assay; format: functional; conditions: read-out: GI
Documented inhibition of growth at 10 µM across a set of molecules

[
  {
    "Sample smiles": "Oc1ccccc1-c1nc2c3ccccc3c3ccccc3c2o1",
    "Value prefix": "<",
    "inhibition of growth at 10 µM / %": 10
  },
  {
    "Sample smiles": "O=c1[nH]cc(F)c(=O)[nH]1",
    "Value prefix": "=",
    "inhibition of growth at 10 µM / %": 30.4
  },
  {
    "Sample smiles": "O=C1c2ccccc2C(=O)c2c1ccc1[nH]c(-c3ccc(-c4nc5c6ccccc6c6ccccc6c5[nH]4)cc3)nc21",
    "Value prefix": "<",
    "inhibition of growth at 10 µM / %": 10
  },
  {
    "Sample smiles": "O=Cc1ccc(-c2nc3c([nH]2)-c2cccc4cccc-3c24)cc1",
    "Value prefix": "=",
    "inhibition of growth at 10 µM / %": 25.8
  },
  {
    "Sample smiles": "c1cc2ccc3ccc(-c4nc5c6ccccc6c6ccccc6c5[nH]4)c4ccc(c1)c2c34",
    "Value prefix": "=",
    "inhibition of growth at 10 µM / %": 13.7
  }
]

The measurements presented in this section are drawn from ChEMBL document CHEMBL4665624.
